These measurements were taken from the supplement of paper PMC10567573.

B1: ZNF263 (parent)
chain: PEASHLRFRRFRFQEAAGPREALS

Variants of: B1
run description: protein stability index of a GFP-peptide fusion (GPS, HEK-293T) (PSI 1-6); higher = more stable;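 note: lentivirally expressed fusions sorted by FACS into six bins by GFP to DsRed ratio, PSI derived from sequencing read proportions per bin multiplied by bin number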
condition label: c terminus: a fixed tail appended
endpoint: protein stability index
Answer using only a numeral; do not append any unit.

// known answers, use as guide
> print(dat)
   variant.annotation                 endpoint  meas.value
1                E21M  protein stability index        2.98
2                R20N  protein stability index        2.99
3                P19E  protein stability index        3.39

q: For the variant `R9F` , what protein stability index is on record?
a: 2.29

q: # iterate: `E21Q`
a: 3.03
